TESTED TARGET: Ba/F3-FL-EGFR (L858R/T790M/C797S) (Homo sapiens, UniProt P00533, T790M/C797S/L858R, cells depend on it)
Sequence (P00533 whole entry T790M/C797S/L858R): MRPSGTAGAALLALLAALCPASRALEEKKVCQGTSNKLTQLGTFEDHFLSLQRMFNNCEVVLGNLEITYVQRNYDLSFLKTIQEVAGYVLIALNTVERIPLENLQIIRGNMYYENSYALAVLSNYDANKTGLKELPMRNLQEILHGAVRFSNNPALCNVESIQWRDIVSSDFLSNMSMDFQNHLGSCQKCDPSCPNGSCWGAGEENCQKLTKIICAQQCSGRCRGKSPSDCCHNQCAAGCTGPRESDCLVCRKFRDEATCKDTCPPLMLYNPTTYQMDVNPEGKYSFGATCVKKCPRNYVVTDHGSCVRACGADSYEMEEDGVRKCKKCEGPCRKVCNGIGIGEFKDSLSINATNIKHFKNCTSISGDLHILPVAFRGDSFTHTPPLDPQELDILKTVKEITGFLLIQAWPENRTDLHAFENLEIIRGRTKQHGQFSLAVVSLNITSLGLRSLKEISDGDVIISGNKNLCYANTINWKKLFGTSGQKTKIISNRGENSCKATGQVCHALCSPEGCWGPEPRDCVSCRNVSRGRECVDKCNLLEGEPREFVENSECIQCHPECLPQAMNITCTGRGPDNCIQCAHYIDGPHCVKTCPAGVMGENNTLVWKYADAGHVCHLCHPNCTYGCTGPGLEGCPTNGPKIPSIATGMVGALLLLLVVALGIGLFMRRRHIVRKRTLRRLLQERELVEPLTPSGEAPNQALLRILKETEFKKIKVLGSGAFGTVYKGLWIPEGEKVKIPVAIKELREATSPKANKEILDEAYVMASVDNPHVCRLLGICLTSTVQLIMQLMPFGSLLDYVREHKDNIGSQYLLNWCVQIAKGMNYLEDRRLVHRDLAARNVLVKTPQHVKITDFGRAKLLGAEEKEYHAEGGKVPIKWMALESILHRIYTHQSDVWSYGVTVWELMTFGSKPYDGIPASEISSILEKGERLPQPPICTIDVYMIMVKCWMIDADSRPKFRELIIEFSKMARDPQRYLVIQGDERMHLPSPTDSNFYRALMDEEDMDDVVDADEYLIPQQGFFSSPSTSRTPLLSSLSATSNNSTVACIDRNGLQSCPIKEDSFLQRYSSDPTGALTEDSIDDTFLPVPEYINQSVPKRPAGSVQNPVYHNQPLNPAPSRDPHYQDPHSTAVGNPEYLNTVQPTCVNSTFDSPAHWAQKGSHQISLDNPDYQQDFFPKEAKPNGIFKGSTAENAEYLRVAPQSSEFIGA
TEST METHOD NOTES: Cell proliferation inhibition, CellTiter-Glo
Assay type: cell-based
CONDITION: 72 hours, read-out: Cell half-maximal inhibition concentration IC50 Ba/F3-FL-EGFR (L858R/T790M/C797S)
METRIC: GI50 (nM)
Unit nM implied. Number only.

Hello, please tell me recorded GI50 for this one: Cc1cc2cc(n1)-c1cnn(C)c1OCCC[C@@H](C)CN1/C(=N/C2=O)Nc2ccc(N=S(C)(C)=O)c(Cl)c21 [WX-019] 5.7

Hello, please tell me recorded GI50 for this one: Cc1cc2cc(n1)-c1cnn(C)c1OC[C@H]1CC[C@H](C1)CN1/C(=N/C2=O)Nc2ccc(N=S(C)(C)=O)cc21 (single isomer, unassigned) [WX-027A] 8.6

More entries:
Hello, please tell me recorded GI50 for this one: Cc1cc2cc(n1)-c1cnn(C)c1OCCC[C@@H](C)CN1/C(=N/C2=O)Nc2ccc(N=S3(=O)CC4CN(C)CC4C3)cc21 (stereo partly drawn) [WX-024] 1.4
